Target or system: T1, HER2-ECD-Fc (human, UniProt P04626 23-652)
T1 construct: extracellular domain; Produced in FreeStyle 293F cells; also called HER2-ECD Fc fusion protein
Measurement notes: ELISA on HER2-ECD-Fc; antibody at 5 × 10^-6 µg/mL
Property label: absorbance
Simply state the number, no unit and no words.

Query: # input binder: hz39D2 (antibody, V domains shown, Humanized antibody, captured as IgG by anti-human IgG in SPR; also called humanized 39D2 antibody) VH: QVQLVQSGSELKKPGASVKVSCKASGYTFTNYGVNWVRQAPGQGLEWMGWINTHTGEPTYAEEFKGRFVFSLDTSVSTAYLQISSLKAEDTAVYYCARDDYYVRVDYWGQGTTVTVSS VL: DIQMTQSPSSLSASVGDRVTITCKASQDINSYLSWFQQKPGKAPKTLIYRANRLVDGVPSRFSGSGSGQDYTLTISSLQPEDFATYYCLQYDEFPWTFGQGTKVEIK ; wanted: its absorbance
Reply: 0.12
